Source listed as patent US9176118B2.

Test: Decapitated locust model: hemolymph drug concentration by LCMS after administration via esophageal catheter
Settings: male, Locusta migratoria (locust), in vivo, 20 µg per animal
Description: The insects may be obtained from local suppliers or bred in house. The grasshoppers were reared under crowded conditions at 28° C. and a 12:12 dark:light photocycle and fed fresh grass and bran. Before experiments the grasshoppers were fed ecologically cultivated wheat for two weeks. […] At various times after administration hemolymph samples are taken for quantitative determination of drug concentration in the hemolymph. […] Drug concentration is analysed by HPLC, LC/MSMS or other methods. […]
observable: concentration at 10 min (ng/mL)

> print(dat)
                   smilescode               observable  reportedresult
1  Cn1c(=O)c2c(ncn2C)n(C)c1=O  concentration at 10 min            1150
